Values compiled from ChEMBL document CHEMBL4130608.

# System: BMDM
# Experimental Protocol: Cytotoxicity against BALB/c mouse BMDM after 24 hrs by MTT assay
# Type: cell-based
Measure Name: CC50 (µM)
Enter your answer as a number in µM; do not include the unit.

Worked cases, CC50 given:
Exercise: Provide value of CC50 for this record tested with BMDM: O=C(NCCSCCNC(=O)c1cc(Br)c(Br)[nH]1)c1cc(Br)c(Br)[nH]1
Key: 66

Exercise: Provide value of CC50 for this record tested with BMDM: O=C(NCCCCCNC(=O)c1cc(Br)c(Br)[nH]1)c1cc(Br)c(Br)[nH]1
Key: 52

As a next step, examine the compound that follows.
Exercise: Provide value of CC50 for this record tested with BMDM: O=C(NCCCCNCCCNC(=O)c1cc(Br)c(Br)o1)c1cc(Br)c(Br)o1
Key: 82

* * *

Known selectivity ratio of a selection of compounds
# Experimental Protocol: Selectivity index, ratio of MDL50 for human HepG2 cells to IC50 for drug-sensitive blood stage Plasmodium falciparum 3D7
# Format: toxicity
# Stated Conditions: HepG2 cells versus blood stage Plasmodium falciparum 3D7, read-out: Selectivity Index
Give only the figure.

Worked cases, selectivity ratio given:
Exercise: For the compound shown here, O=C(NCCCCCCNCCCCCCNC(=O)c1cc(Br)c(Br)[nH]1)c1cc(Br)c(Br)[nH]1 , give the reported selectivity ratio.
Key: 101

Exercise: For the compound shown here, O=C(NCCCNCCCCNCCCNC(=O)c1cc(Br)c(Br)[nH]1)c1cc(Br)c(Br)[nH]1 , give the reported selectivity ratio.
Key: 52

Exercise: For the compound shown here, CN(CCCCNC(=O)c1cc(Br)c(Br)[nH]1)CCCNC(=O)c1cc(Br)c(Br)[nH]1 , give the reported selectivity ratio.
Key: 35

As a next step, examine the compound that follows.
Exercise: For the compound shown here, O=C(NCCCCNCCCNC(=O)c1cc(Br)c(Br)[nH]1)c1cc(Br)c(Br)[nH]1 , give the reported selectivity ratio.
Key: 15
